Entry source: PubChem BioAssay AID686977

test: Vibrio cholerae quorum sensing activators, luminescence (AID 686977); details: V. cholerae quorum sensing reporter, 6 h, active compounds read high; dose 50, dose unit µM unless noted
Hit rate of the full screen: of about 9,400 compounds, fewer than 10 were called active. Inconclusive results (about 5%) are left out. The list is a sample of the results. Results with a measured potency or affinity are listed apart.
Measurement type: luminescence

{"columns": ["Molecule", "Measured number"],
 "data": [
  ["CCC(C)c1ccc(-c2cc(C(=O)OCC(=O)Nc3cc(C)on3)c3ccccc3n2)cc1 (stereo unspecified)", 0],
  ["CCn1c(SCC(=O)NCCc2ccccc2)nnc1-c1ccco1", 0],
  ["c1cc2c3c(cccc3c1)NC1(CCCCC1)N2", 40],
  ["O=C(Nc1cccc(F)c1)c1cccnc1N1CCOCC1", 80],
  ["Cc1ccc(-c2nnc3n2N=C(c2ccccc2)CS3)cc1", 0],
  ["O=C(O)c1ccc(NS(=O)(=O)c2cccc3cccnc23)cc1", 0],
  ["COC(=O)c1c(C)[nH]c(C)c1-c1ccccc1Cl", 0],
  ["Cc1nn(C2CCS(=O)(=O)C2)c(Cl)c1/C=C/C(=O)OCC(=O)Nc1ccccc1OC(F)F (stereo unspecified)", 0],
  ["CCOC(=O)C(C)Sc1nnc(Cc2cc(=O)[nH]c(=O)[nH]2)n1-c1ccc(OCC)cc1 (stereo unspecified)", 0],
  ["COC(=O)c1ccc(NC(=O)CSc2nnc(COc3ccc4c(c3)CCCC4)o2)cc1", 40],
  ["O=C(Nc1ccc(Br)cc1F)C1CCCN(S(=O)(=O)c2cnc[nH]2)C1 (stereo unspecified)", 0]
]}
